- Measured Target: Hexose transporter 1 (Plasmodium falciparum)
- Measurement Protocol: ST_JUDE_LEISH: Cytotoxicity at 2uM final concentration against transgenic Leishmania Mexicana promastigotes LmPfHT that are glucose transport deficient and complemented with the Plasmodium falciparum hexose transporter. Activity is measured by DNA content using SYBR green in vitro
- Format: functional
inhibition reference
Property Name: inhibition (%)

molecule="CN(C)c1ccc(-c2cscc2C(=O)NC2CCCN(Cc3cccnc3)C2)cc1 (stereo not given)" measured_target="Hexose transporter 1 (Plasmodium falciparum)" recorded_number=-0.27
molecule=CS(=O)(=O)NCCCNCc1cccc(-c2csc(-c3nc4ccccc4[nH]3)c2)c1 measured_target="Hexose transporter 1 (Plasmodium falciparum)" recorded_number=-0.51
molecule="CCn1cc(CN2CCCC(C(=O)Nc3ccc(-c4nc5ccccc5[nH]4)cc3)C2)cn1 (stereo not given)" measured_target="Hexose transporter 1 (Plasmodium falciparum)" recorded_number=3.52
molecule=COc1ccc(C(=O)N2CCN(c3ccc([N+](=O)[O-])c(NC4CC4)c3)CC2)cc1Br measured_target="Hexose transporter 1 (Plasmodium falciparum)" recorded_number=14.1
molecule="OC(CNc1ccnc(Nc2cccc(Cl)c2)n1)c1cccc(F)c1 (stereo not given)" measured_target="Hexose transporter 1 (Plasmodium falciparum)" recorded_number=4.41
